Data provenance: ChEMBL document CHEMBL1909046

target_under_test: Alpha-2C adrenergic receptor (Homo sapiens)
Sequence (P18825 whole entry): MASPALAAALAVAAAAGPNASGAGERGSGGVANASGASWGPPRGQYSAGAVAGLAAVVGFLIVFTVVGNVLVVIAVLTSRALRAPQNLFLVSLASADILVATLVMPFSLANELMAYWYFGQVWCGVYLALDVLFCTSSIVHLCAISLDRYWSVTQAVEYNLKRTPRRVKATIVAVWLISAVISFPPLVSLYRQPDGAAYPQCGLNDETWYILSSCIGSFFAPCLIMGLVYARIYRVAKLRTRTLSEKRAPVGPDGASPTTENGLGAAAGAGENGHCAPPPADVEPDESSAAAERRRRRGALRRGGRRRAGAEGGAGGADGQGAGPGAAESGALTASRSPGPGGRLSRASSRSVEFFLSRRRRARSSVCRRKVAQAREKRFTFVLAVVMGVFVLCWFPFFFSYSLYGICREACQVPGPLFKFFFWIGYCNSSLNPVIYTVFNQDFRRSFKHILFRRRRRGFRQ
test_name: DRUGMATRIX: Adrenergic Alpha-2C radioligand binding (ligand: [3H] MK-912)
Type: cell membranes, Sf9, Membrane
condition_notes: read-out: Ki
endpoint_name: pKi
One number for each entry, as −log10 of the molar value.

// known answers, use as guide
molecule	endpoint_name	reading
CCN(CC)CCOc1ccc(/C(=C(/Cl)c2ccccc2)c2ccccc2)cc1	pKi	6.67
CO[C@@H]1[C@@H](OC)[C@H](C)[C@@](O)(CC(=O)O)O[C@H]1[C@H](C)[C@H]1O[C@@]2(CC[C@@](C)([C@H]3CC[C@@](C)([C@@H]4O[C@@H]([C@H]5O[C@](C)(O)[C@H](C)C[C@@H]5C)C[C@@H]4O[C@@H]4C[C@H](OC)[C@@H](OC)[C@H](C)O4)O3)O2)C[C@H](O)[C@H]1C	pKi	6.63
Fc1ccc(C(c2ccc(F)cc2)N2CCN(C/C=C/c3ccccc3)CC2)cc1	pKi	7.49
CC[C@H]1CN2CCc3cc(OC)c(OC)cc3[C@@H]2C[C@@H]1C[C@H]1NCCc2cc(OC)c(OC)cc21	pKi	7.59
COc1ccc2cc3[n+](cc2c1OC)CCc1cc2c(cc1-3)OCO2.[Cl-] [BERBERINE CHLORIDE]	pKi	6.39

Please look at the items below and tell me pKi for each one, in order.
1. Clc1ccccc1CN1CCc2sccc2C1
2. Oc1c(Cl)cc(Cl)c(Cl)c1Cc1c(O)c(Cl)cc(Cl)c1Cl

**Result**
1. 6.77
2. 5.99
